Assay: Oral bioavailability in rat (dose 10 mg/kg)
Format: ADME, organism-based
Conditions: in vivo

[
  {
    "compound-smiles": "C[C@H](O)[C@@H](CCc1cccc(Cl)c1Cl)n1cnc(C(N)=O)c1",
    "bioavailability [%]": 44
  },
  {
    "compound-smiles": "C[C@H](O)[C@@H](CCc1cccc2ccccc12)n1cnc(C(N)=O)c1",
    "bioavailability [%]": 30
  },
  {
    "compound-smiles": "C[C@H](O)[C@@H](CCOc1ccc2ccccc2c1)n1cnc(C(N)=O)c1",
    "bioavailability [%]": 42
  }
]
